Origin of the recorded values: ChEMBL document CHEMBL4346735

target: Cytochrome P450 2D6 (Homo sapiens)
Sequence (P10635 whole entry): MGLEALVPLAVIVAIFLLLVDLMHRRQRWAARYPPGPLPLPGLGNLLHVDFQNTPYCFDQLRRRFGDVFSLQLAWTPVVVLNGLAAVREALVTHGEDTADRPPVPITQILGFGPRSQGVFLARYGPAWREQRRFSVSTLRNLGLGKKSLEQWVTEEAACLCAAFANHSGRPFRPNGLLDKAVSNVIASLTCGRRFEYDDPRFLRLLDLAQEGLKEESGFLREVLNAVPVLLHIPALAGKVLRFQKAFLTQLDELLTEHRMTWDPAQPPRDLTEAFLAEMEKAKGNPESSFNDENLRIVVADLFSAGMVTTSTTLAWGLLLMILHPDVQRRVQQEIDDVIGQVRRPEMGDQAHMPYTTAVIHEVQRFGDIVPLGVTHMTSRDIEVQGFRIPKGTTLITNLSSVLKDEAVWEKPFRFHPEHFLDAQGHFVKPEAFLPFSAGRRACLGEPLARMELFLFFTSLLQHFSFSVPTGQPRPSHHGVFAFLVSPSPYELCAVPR
Overview of reported IC50 across a group of compounds:

Examples with their reported IC50 follow.
Lab request: please report IC50 under test system Cytochrome P450 2D6 (Homo sapiens) for O=C(O)c1ccc(-n2cc(C(=O)c3c(Cl)cccc3Cl)c3c(F)cccc32)cc1
> 50 µM

Lab request: please report IC50 under test system Cytochrome P450 2D6 (Homo sapiens) for O=C(O)c1ccc(-n2cc(C(=O)c3c(Cl)cccc3C(F)(F)F)c3ccccc32)cc1
> 50 µM

Lab request: please report IC50 under test system Cytochrome P450 2D6 (Homo sapiens) for Cc1cccc(Cl)c1C(=O)c1cn(-c2ccc(C(=O)O)cc2)c2ccccc12
> 50 µM

***
Lab request: please report IC50 under test system Cytochrome P450 2D6 (Homo sapiens) for O=C(O)c1ccc(-n2cc(C(=O)c3c(F)cccc3Cl)c3ccccc32)cc1
> 100 µM

Lab request: please report IC50 under test system Cytochrome P450 2D6 (Homo sapiens) for O=C(O)c1ccc(-n2cc(C(=O)c3c(Cl)cccc3C(F)(F)F)c3c(F)cccc32)cc1
> 50 µM

Lab request: please report IC50 under test system Cytochrome P450 2D6 (Homo sapiens) for Cc1cccc(Cl)c1C(=O)c1cn(-c2ccc(C(=O)O)cc2)c2c(F)cccc12
> 50 µM

* * *

Overview of reported Cmax across a group of compounds:
assay: Cmax in mouse at 10 mg/kg, po; type: ADME, organism-based; set-up: dose 10 mg/kg, route oral; settings: in vivo
Could you give me the number in µM? Just the number is fine.

Examples with their reported Cmax follow.
Find the recorded Cmax belonging to O=C(O)c1ccc(-n2cc(C(=O)c3c(Cl)cccc3C(F)(F)F)c3cccnc32)c(F)c1 and report it.
12.1

Find the recorded Cmax belonging to CCS(=O)(=O)c1ccc(CC(=O)Nc2cc(Cl)c(-c3ccccc3OC(F)(F)F)c(Cl)c2)cc1 and report it.
3

Find the recorded Cmax belonging to O=C(O)c1ccc(-n2cc(C(=O)c3c(Cl)cccc3Cl)c3ccccc32)c(F)c1 and report it.
5.7

***
Find the recorded Cmax belonging to O=C(O)c1ccc(-n2cc(C(=O)c3c(Cl)cccc3Cl)c3cccc(F)c32)cc1 and report it.
6.2

Find the recorded Cmax belonging to O=C(O)c1ccc(-n2cc(C(=O)c3c(Cl)cccc3C(F)(F)F)c3c(F)cccc32)c(F)c1 and report it.
17.5

Find the recorded Cmax belonging to Cc1cccc(Cl)c1C(=O)c1cn(-c2ccc(C(=O)O)cc2)c2ccccc12 and report it.
18.3

* * *

Overview of reported remaining at 0.5 h, 1 µM across a group of compounds:
test: Metabolic stability in human liver microsomes assessed as parent compound remaining at 1 uM preincubated for 5 mins followed by NADPH addition after 30 mins by LC-MS/MS analysis; assay type: ADME, Microsome; details: read-out: Stability
Could you give me the number in %? Just the number is fine.

Find the recorded remaining at 0.5 h, 1 µM belonging to O=C(O)c1ccc(-n2cc(C(=O)c3c(Cl)cccc3Cl)c3ccccc32)cc1C(F)(F)F and report it.
71

Find the recorded remaining at 0.5 h, 1 µM belonging to O=C(O)c1cc(F)c(-n2cc(C(=O)c3c(Cl)cccc3Cl)c3ccccc32)c(F)c1 and report it.
94

Find the recorded remaining at 0.5 h, 1 µM belonging to O=C(O)c1ccc(-n2cc(C(=O)c3c(Cl)cccc3C(F)(F)F)c3ccccc32)cc1 and report it.
100

Find the recorded remaining at 0.5 h, 1 µM belonging to O=C(O)c1ccc(-n2cc(C(=O)c3c(Cl)cccc3Cl)c3cccc(F)c32)c(F)c1 and report it.
65

***
Find the recorded remaining at 0.5 h, 1 µM belonging to Cc1cccc(Cl)c1C(=O)c1cn(-c2ccc(C(=O)O)cc2)c2ccccc12 and report it.
89

Find the recorded remaining at 0.5 h, 1 µM belonging to O=C(O)c1ccc(-n2cc(C(=O)c3c(Cl)cccc3C(F)(F)F)c3c(F)cccc32)cc1 and report it.
79

Find the recorded remaining at 0.5 h, 1 µM belonging to O=C(O)c1ccc(-n2cc(C(=O)c3c(F)cccc3Cl)c3ccccc32)cc1 and report it.
100

Find the recorded remaining at 0.5 h, 1 µM belonging to O=C(O)c1ccc(-n2cc(C(=O)c3c(Cl)cccc3Cl)c3ncccc32)cc1 and report it.
94

Find the recorded remaining at 0.5 h, 1 µM belonging to O=C(O)c1ccc(-n2cc(C(=O)c3c(Cl)cccc3Cl)c3ccccc32)c(F)c1 and report it.
92

* * *

test: Metabolic stability in simulated intestinal fluid assessed as compound remaining after 3 hrs; format: ADME; details: read-out: Stability
metric_name: remaining at 3 h (%)
Could you give me the number in %? Just the number is fine.

Find the recorded remaining at 3 h belonging to O=C(O)c1ccc(-n2cc(C(=O)c3c(Cl)cccc3Cl)c3cccc(F)c32)cc1 and report it.
100

* * *

test: AUC (0 to infinity) in Balb/c mouse at 10 mg/kg, po; type: ADME, organism-based; set-up: dose 10 mg/kg, time infinity, route oral; conditions: in vivo
metric_name: AUC(0-inf) (µM·h)
Could you give me the number in µM·h? Just the number is fine.

Find the recorded AUC(0-inf) belonging to O=C([O-])c1ccc(-n2cc(C(=O)c3c(Cl)cccc3Cl)c3cccc(F)c32)cc1.[Na+] and report it.
12.7

* * *

test: Metabolic stability in rat hepatocytes assessed as parent compound remaining after 60 mins; format: ADME, cell-based, Hepatocyte; settings: read-out: Stability
metric_name: remaining at 1 h (%)
Could you give me the number in %? Just the number is fine.

Find the recorded remaining at 1 h belonging to O=C(O)c1ccc(-n2cc(C(=O)c3c(Cl)cccc3Cl)c3cccc(F)c32)cc1 and report it.
57

* * *

Target: Nuclear receptor ROR-gamma (Mus musculus, UniProt P51450)
Sequence (P51450 whole entry): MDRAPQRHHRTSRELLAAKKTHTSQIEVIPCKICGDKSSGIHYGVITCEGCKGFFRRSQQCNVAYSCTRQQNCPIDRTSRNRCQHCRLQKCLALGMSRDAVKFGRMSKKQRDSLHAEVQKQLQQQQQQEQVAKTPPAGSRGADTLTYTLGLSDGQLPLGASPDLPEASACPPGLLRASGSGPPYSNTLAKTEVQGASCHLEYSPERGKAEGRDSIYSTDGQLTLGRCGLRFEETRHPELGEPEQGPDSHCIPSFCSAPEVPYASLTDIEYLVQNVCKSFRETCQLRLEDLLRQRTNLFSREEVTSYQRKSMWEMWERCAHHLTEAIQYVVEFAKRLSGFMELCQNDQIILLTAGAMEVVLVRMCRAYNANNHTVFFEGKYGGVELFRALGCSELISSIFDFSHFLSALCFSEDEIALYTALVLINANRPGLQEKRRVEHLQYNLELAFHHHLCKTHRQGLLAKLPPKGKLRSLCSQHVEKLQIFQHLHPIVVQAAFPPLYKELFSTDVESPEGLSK
Experiment: Transrepression of RORgammat in Balb/c mouse splenocytes assessed as reduction in anti-CD3/anti-CD28 stimulated IL-17 level measured after 48 hrs in presence of anti-CD3/anti-CD28 by ELISA
Type: cell-based
metric_name: IC50

Find the recorded IC50 belonging to O=C(O)c1ccc(-n2cc(C(=O)c3c(Cl)cccc3Cl)c3cccc(F)c32)cc1 and report it.
500 to 503 nM

* * *

experiment: Oral bioavailability in mouse at 10 mg/kg; assay type: ADME, organism-based; details: in vivo
Overview of reported bioavailability across a group of compounds:
Could you give me the number in %? Just the number is fine.

Examples with their reported bioavailability follow.
Find the recorded bioavailability belonging to O=C(O)c1ccc(-n2cc(C(=O)c3c(Cl)cccc3C(F)(F)F)c3c(F)cccc32)c(F)c1 and report it.
62

Find the recorded bioavailability belonging to O=C(O)c1ccc(-n2cc(C(=O)c3c(Cl)cccc3Cl)c3ccccc32)c(F)c1 and report it.
52

Find the recorded bioavailability belonging to O=C(O)c1ccc(-n2cc(C(=O)c3c(Cl)cccc3Cl)c3cccc(F)c32)cc1 and report it.
72

Find the recorded bioavailability belonging to O=C(O)c1ccc(-n2cc(C(=O)c3c(Cl)cccc3C(F)(F)F)c3cccnc32)c(F)c1 and report it.
100

***
Find the recorded bioavailability belonging to Cc1cccc(Cl)c1C(=O)c1cn(-c2ccc(C(=O)O)cc2)c2ccccc12 and report it.
45

* * *

Overview of reported remaining at 0.5 h, 1 µM across a group of compounds:
experiment: Metabolic stability in mouse liver microsomes assessed as parent compound remaining at 1 uM preincubated for 5 mins followed by NADPH addition after 30 mins by LC-MS/MS analysis; type: ADME, Microsome; details: read-out: Stability
Could you give me the number in %? Just the number is fine.

Examples with their reported remaining at 0.5 h, 1 µM follow.
Find the recorded remaining at 0.5 h, 1 µM belonging to O=C(O)c1ccc(-n2cc(C(=O)c3c(Cl)cccc3Cl)c3cccc(F)c32)c(F)c1 and report it.
72

Find the recorded remaining at 0.5 h, 1 µM belonging to O=C(O)c1ccc(-n2cc(C(=O)c3c(Cl)cccc3Cl)c3ccccc32)c(F)c1F and report it.
100

Find the recorded remaining at 0.5 h, 1 µM belonging to Cc1cccc(Cl)c1C(=O)c1cn(-c2ccc(C(=O)O)cc2F)c2cccc(F)c12 and report it.
68

Find the recorded remaining at 0.5 h, 1 µM belonging to O=C(O)c1ccc(-n2cc(C(=O)c3c(Cl)cccc3Cl)c3ccccc32)c(C(F)(F)F)c1 and report it.
85

Find the recorded remaining at 0.5 h, 1 µM belonging to Cc1cccc(Cl)c1C(=O)c1cn(-c2ccc(C(=O)O)cc2)c2c(F)cccc12 and report it.
80

***
Find the recorded remaining at 0.5 h, 1 µM belonging to Cc1cccc2c(C(=O)c3ccccc3Cl)cn(-c3ccc(C(=O)O)cc3F)c12 and report it.
67

Find the recorded remaining at 0.5 h, 1 µM belonging to O=C(O)c1cc(F)c(-n2cc(C(=O)c3c(Cl)cccc3Cl)c3ccccc32)c(F)c1 and report it.
75

Find the recorded remaining at 0.5 h, 1 µM belonging to O=C(O)c1ccc(-n2cc(C(=O)c3c(Cl)cccc3C(F)(F)F)c3cccnc32)c(F)c1 and report it.
87

Find the recorded remaining at 0.5 h, 1 µM belonging to O=C(O)c1ccc(-n2cc(C(=O)c3c(Cl)cccc3Cl)c3ccccc32)cc1C(F)(F)F and report it.
61
